// data source = ChEMBL document CHEMBL3576862

# systemTested: Major capsid protein L1 (Human papillomavirus 16)
# assay: Inhibition of GST-tagged HPV16 major capsid protein L1 pentamer formation at 1:100 ratio of pentamer to compound in presence of PPase by FPLC method
Calls of active or inactive are those of the source. The calls are words filed in the database; no cut-off is given here.
Your answer must be one of the following: active, inactive

Example results:
{"substance": "H-QFPLGRKFL-OH", "classification": "active"}
{"substance": "H-DLDQFPAGRKFLLQ-OH", "classification": "inactive"}
{"substance": "H-DLDQFPSSSKFLLQ-OH", "classification": "inactive"}
{"substance": "H-DLDQFPLGAKFLLQ-OH", "classification": "inactive"}
{"substance": "H-DLDQFPLGR-OH", "classification": "inactive"}

Qu. So what was the verdict on `H-DLDQSPLGRKFLLQ-OH` in this test?
Ans. inactive

Qu. So what was the verdict on `H-PLGRKFL-OH` in this test?
Ans. inactive
